TGI for assorted compounds
- Test system: HOP-92 NSCLC
- protocolDetails: NCI tumour cell line growth inhibition, 48 h
assayEndpoint: TGI

OC1(c2ccc(Cl)c(C(F)(F)F)c2)CCN(CCCC(c2ccc(F)cc2)c2ccc(F)cc2)CC1    1.17 µM
CCOC(=O)C1C(c2ccc(Cl)cc2Cl)NC(c2ccc(C)cc2)C(C(=O)OC)S1(=O)=O (stereo not drawn)    > 100 µM
CCc1c(O)cc(=O)oc1-c1ccc(OC)c(OC)c1    > 100 µM
CC1=C(C(=O)Nc2ccccc2)C(c2ccc(N(C)C)cc2)C(C(=O)Nc2ccccc2)=C(C)N1    > 94.6 µM
CN(C)CCN(c1ccccn1)c1ccccn1    > 100 µM
CC1(C)CC(=O)C2=C(C1)C(c1ccccc1Cl)C1C(=O)CC(C)(C)CC1(O)O2 (stereo not drawn)    > 100 µM
CSCC[C@@H](NC(=O)[C@H](CC(C)C)NC(=O)C(Cc1cnc[nH]1)NC(=O)CNC(=O)[C@@H](NC(=O)[C@H](C)NC(=O)[C@H](Cc1c[nH]c2ccccc12)NC(=O)[C@H](CCC(N)=O)NC(=O)[C@@H](N)CC(N)=O)C(C)C)C(N)=O (stereo partly drawn)    > 100 µM
CC(=O)ON1CCCC(P(=O)(OCOC(=O)C(C)(C)C)OCOC(=O)C(C)(C)C)C1=O (stereo not drawn)    1.82 µM

###

- Test system: HCT-116 colon
- protocolDetails: NCI tumour cell line growth inhibition, 48 h; in the data active = GI50 below about 0.43 µM; inactive = the rest
Labels: active, inactive

COc1ccc2c(c1)c(-c1nc(-c3c[nH]c4ncccc34)cs1)cn2CCCN1CCOCC1    inactive
CCn1cc(C(=O)O)c(=O)c2cc(F)c(N3CCN(S(=O)(=O)c4cccc5ccccc45)CC3)cc21    inactive
O=C(/C=C/C12c3ccccc3C(c3ccccc31)C1C(=O)NC(=O)C12)c1ccccn1 (stereo not given)    inactive
O=C1NN(C2=NNC3(C(=O)N2)c2ccccc2-c2ccccc23)C(c2ccccc2)=N/C1=C/c1ccc(Cl)cc1    inactive
CN(C)CCCC1(c2ccc(F)cc2)OCc2cc(-c3cccc4[nH]ccc34)ccc21 (stereo not given)    inactive
O=C1C=C[C@H](O)[C@@]2(CO)O[C@@H]12    inactive
N#Cc1nc2c(S(=O)(=O)c3ccc(Cl)cc3)c(N)n(Nc3cccc(Cl)c3)c2nc1C#N    active
COc1ccc(C(=O)c2cc(OC)c(OC)c(OC)c2OC)cc1O    inactive
CC1(C)OC[C@@H]([C@@]2(CO[Si](c3ccccc3)(c3ccccc3)C(C)(C)C)CC=CC(=O)O2)O1    inactive
Cc1cccc(NC(=O)c2sc3nc4c(cc3c2N)C(=O)CCC4)c1    active

###

- System: SK-MEL-5 melanoma
- protocolDetails: NCI tumour cell line growth inhibition, 48 h; in the data active means GI50 below about 0.43 µM; inactive means the rest
Labels: t for active, f for inactive

CC(=O)ON1CCCC(P(=O)(OCOC(=O)C(C)(C)C)OCOC(=O)C(C)(C)C)C1=O (stereo not given)    f
CCN(CC)CCCNc1ccc(C)c2sc3ccccc3c(=O)c12    t
O=C1/C(=C/c2ccc(Cl)c(Cl)c2)CN(C(=O)CCN2CCC(=NO)CC2)C/C1=C\c1ccc(Cl)c(Cl)c1    f
CC1(C)OC[C@@H]([C@@]2(CO[Si](c3ccccc3)(c3ccccc3)C(C)(C)C)CC=CC(=O)O2)O1    f
Cn1nccc1Nc1nccc(-c2ccn([C@H](CO)c3ccc(Cl)c(F)c3)c(=O)c2)n1    f
COc1ccc(OC)c(/C=C/c2nc(=S)n(-c3ccc(Cl)cc3)[nH]2)c1    f
COc1cc(CNc2nc3cc(N)cc(N)c3nc2-c2ccccc2)cc(OC)c1    f
N#Cc1nc2c(S(=O)(=O)c3ccc(Cl)cc3)c(N)n(Nc3cccc(Cl)c3)c2nc1C#N    t
O=C(/C=C/C12c3ccccc3C(c3ccccc31)C1C(=O)NC(=O)C12)c1ccccn1 (stereo not given)    f
Cc1c(C(=N)C(C#N)C#N)c(=N)oc2c1ccc1ccccc12    f
CCCCCCCCCCCCCCCCCCOc1ccccc1CC(=O)NCC[N+]1(C)CCOCC1    f
COc1ccc2c(c1)C(=O)c1c-2c(Nc2ccccc2OC)nc2ccccc12    f
Nc1ncnc2c1N=C(c1ccc3c(c1)OCO3)CC(c1ccc(Cl)cc1)N2 (stereo not given)    f
CCN1C(=S)N(CC)C2C1NC(=S)N2/N=C/C=C/c1ccccc1OC (stereo not given)    t
CCn1cc(C(=O)O)c(=O)c2cc(F)c(N3CCN(S(=O)(=O)c4cccc5ccccc45)CC3)cc21    f
CNC(=O)c1ncccc1Nc1nc(Nc2cc3c(cc2OC)CCCN3C(=O)CN(C)C)nc2[nH]ccc12    f
c1ccc(-c2[nH]ncc2-c2ccnc(-c3ccc(OCCn4ccnc4)cc3)c2)nc1    f
COc1ccc2c(N)ncc(C#Cc3cc(C(=O)Nc4ccc(CN5CCN(C)CC5)c(C(F)(F)F)c4)cnc3C)c2c1    f
CCN(CC)Cc1cc(Nc2nc(NC3CCC(N(C)C)CC3)c3ccccc3n2)ccc1OC (stereo not given)    f
O=C1C=C[C@H](O)[C@@]2(CO)O[C@@H]12    f
